system: MCF7; assay: Antiproliferative activity against human MCF7 cells after 72 hrs by MTT assay; type: functional, cell-based; details: MCF7, 72 h
pIC50: −log10 of the molar value.

smiles.notation: C[C@@H]1C[C@@H](O[C@@H]2O[C@H](CO)[C@@H](O)[C@H](O)[C@H]2O)[C@]2(O)O[C@@H]3C[C@@]4(C=O)[C@@H](CC[C@@H]5[C@@H]4CC[C@]4(C)[C@@H](C6=CC(=O)OC6)CC[C@]54O)C[C@H]3O[C@@H]2O1
pIC50: 6.70
//
smiles.notation: C[C@]12CC[C@H]3[C@@H](CC[C@H]4C[C@H]5O[C@@H]6O[C@H](CO)C[C@@H](O)[C@]6(O)O[C@@H]5C[C@@]43CO)[C@@]1(O)CC[C@@H]2C1=CC(=O)OC1
pIC50: 6.70
//
smiles.notation: C[C@@H]1C[C@@H](O)[C@]2(O)O[C@@H]3C[C@@]4(C=O)[C@@H](CC[C@@H]5[C@@H]4C[C@@H](O)[C@]4(C)[C@@H](C6=CC(=O)OC6)CC[C@]54O)C[C@H]3O[C@@H]2O1
pIC50: 5.22
//
smiles.notation: C[C@@H]1C[C@@H](O)[C@]2(O)O[C@@H]3C[C@@]4(CO)[C@@H](CC[C@@H]5[C@@H]4C[C@@H](O)[C@]4(C)[C@@H](C6=CC(=O)OC6)CC[C@]54O)C[C@H]3O[C@@H]2O1
pIC50: 5.30

* * *

tested on: MCF7; assay: Antiproliferative activity against human MCF7 cells after 72 hrs by MTT assay; assay type: functional, cell-based; settings: MCF7, 72 h

molecule: C[C@]12[C@H](O)C[C@H]3[C@@H](CC[C@H]4C[C@@H](O)CC[C@@]43CO)[C@@]1(O)CC[C@@H]2C1=CC(=O)OC1
target.of.assay: MCF7
unit.of.measure: µM
IC50: 2.5
//
molecule: CC(=O)O[C@@]12CO[C@@H]1C[C@H](O)[C@@]1(C)C(=O)[C@H](O)C3=C(C)[C@@H](OC(=O)[C@H](O)[C@@H](NC(=O)OC(C)(C)C)c4ccccc4)C[C@@](O)([C@@H](OC(=O)c4ccccc4)[C@H]21)C3(C)C [DOCETAXEL ANHYDROUS]
target.of.assay: MCF7
unit.of.measure: µM
IC50: 0.0005
//
molecule: C[C@]12CC[C@H](O[C@@H]3O[C@H](CO)[C@@H](O)[C@H](O)[C@H]3O)C[C@@H]1CC[C@@H]1[C@@H]2CC[C@]2(C)[C@@H](C3=CC(=O)OC3)CC[C@]12O [DESGLUCOUZARIN]
target.of.assay: MCF7
unit.of.measure: µM
IC50: 6
//
molecule: C[C@@H]1C[C@@H](O)[C@]2(O)O[C@@H]3C[C@@]4(C=O)[C@@H](CC[C@@H]5[C@@H]4CC[C@]4(C)[C@@H](C6=CC(=O)OC6)CC[C@]54O)C[C@H]3O[C@@H]2O1 [CALACTIN]
target.of.assay: MCF7
unit.of.measure: µM
IC50: 0.2
//
molecule: C[C@]12CC[C@H]3[C@@H](CC[C@H]4C[C@@H](O[C@@H]5O[C@H](CO)[C@@H](O)[C@H](O)[C@H]5O)CC[C@@]43CO)[C@@]1(O)CC[C@@H]2C1=CC(=O)OC1
target.of.assay: MCF7
unit.of.measure: µM
IC50: 8
//
molecule: COc1cc(/C=C/C(=O)OC[C@H]2O[C@@H](O[C@H]3CC[C@@]4(C)[C@@H](CC[C@@H]5[C@@H]4CC[C@]4(C)[C@@H](C6=CC(=O)OC6)CC[C@]54O)C3)[C@H](O)[C@@H](O)[C@@H]2O)ccc1O
target.of.assay: MCF7
unit.of.measure: µM
IC50: 0.2
//
molecule: C[C@]12CC[C@H]3[C@@H](CC[C@H]4C[C@H]5O[C@@H]6O[C@H](CO)C[C@H](O)[C@]6(O)O[C@@H]5C[C@@]43C=O)[C@@]1(O)CC[C@@H]2C1=CC(=O)OC1
target.of.assay: MCF7
unit.of.measure: µM
IC50: 1.8
//
molecule: C[C@@H]1C[C@H](O)[C@]2(O)O[C@@H]3C[C@@]4(C=O)[C@@H](CC[C@@H]5[C@@H]4C[C@@H](O)[C@]4(C)[C@@H](C6=CC(=O)OC6)CC[C@]54O)C[C@H]3O[C@@H]2O1
target.of.assay: MCF7
unit.of.measure: µM
IC50: 0.2
//
molecule: CC(=O)O[C@@H]1C[C@]2(O)[C@@H]3CC[C@H]4C[C@H]5O[C@@H]6O[C@H](C)C[C@H](O)[C@]6(O)O[C@@H]5C[C@]4(C=O)[C@H]3C[C@@H](O)[C@]2(C)[C@H]1C1=CC(=O)OC1
target.of.assay: MCF7
unit.of.measure: µM
IC50: 0.4
//
molecule: C[C@]12[C@H](O)C[C@H]3[C@@H](CC[C@H]4C[C@H]5O[C@@H]6O[C@H](CO)C[C@@H](O)[C@]6(O)O[C@@H]5C[C@@]43C=O)[C@@]1(O)CC[C@@H]2C1=CC(=O)OC1
target.of.assay: MCF7
unit.of.measure: µM
IC50: 2

* * *

In this section, each of the compounds is paired with its reported log10(IC50).
tested on: HeLa; test: Antiproliferative activity against human HeLa cells after 72 hrs by MTT assay; type: functional, cell-based
metric: log10(IC50) (log10 of the value in nM)

compound: C[C@]12[C@H](O)C[C@H]3[C@@H](CC[C@H]4C[C@H]5O[C@@H]6O[C@H](CO)C[C@@H](O)[C@]6(O)O[C@@H]5C[C@@]43C=O)[C@@]1(O)CC[C@@H]2C1=CC(=O)OC1
target.of.assay: HeLa
number: 2.48
--
compound: C[C@]12[C@H](O)C[C@H]3[C@@H](CC[C@H]4C[C@@H](O)CC[C@@]43CO)[C@@]1(O)CC[C@@H]2C1=CC(=O)OC1
target.of.assay: HeLa
number: 2.95
--
compound: C[C@]12CC[C@H](O)C[C@@H]1CC[C@@H]1[C@@H]2CC[C@]2(C)[C@@H](C3=CC(=O)OC3)CC[C@]12O
target.of.assay: HeLa
number: 3.48
--
compound: COc1cc(/C=C/C(=O)OC[C@H]2O[C@@H](O[C@H]3CC[C@@]4(C)[C@@H](CC[C@@H]5[C@@H]4CC[C@]4(C)[C@@H](C6=CC(=O)OC6)CC[C@]54O)C3)[C@H](O)[C@@H](O)[C@@H]2O)ccc1O
target.of.assay: HeLa
number: 3.65
--
compound: C[C@]12CC[C@H]3[C@@H](CC[C@H]4C[C@H]5O[C@@H]6O[C@H](CO)C[C@@H](O)[C@]6(O)O[C@@H]5C[C@@]43CO)[C@@]1(O)CC[C@@H]2C1=CC(=O)OC1
target.of.assay: HeLa
number: 2.48
--
compound: C[C@]12CC[C@H](O[C@@H]3O[C@H](CO)[C@@H](O)[C@H](O)[C@H]3O)C[C@@H]1CC[C@@H]1[C@@H]2CC[C@]2(C)[C@@H](C3=CC(=O)OC3)CC[C@]12O
target.of.assay: HeLa
number: 2.78
--
compound: CC(=O)O[C@@H]1C[C@]2(O)[C@@H]3CC[C@H]4C[C@H]5O[C@@H]6O[C@H](C)C[C@H](O)[C@]6(O)O[C@@H]5C[C@]4(C=O)[C@H]3C[C@@H](O)[C@]2(C)[C@H]1C1=CC(=O)OC1
target.of.assay: HeLa
number: 2.70
--
compound: C[C@]12CC[C@H]3[C@@H](CC[C@H]4C[C@H]5O[C@@H]6O[C@H](CO)C[C@H](O)[C@]6(O)O[C@@H]5C[C@@]43C=O)[C@@]1(O)CC[C@@H]2C1=CC(=O)OC1
target.of.assay: HeLa
number: 2.48
--
compound: C[C@]12CC[C@H]3[C@@H](CC[C@H]4C[C@@H](O[C@@H]5O[C@H](CO)[C@@H](O)[C@H](O)[C@H]5O)CC[C@@]43CO)[C@@]1(O)CC[C@@H]2C1=CC(=O)OC1
target.of.assay: HeLa
number: 2.48
--
compound: CC(=O)O[C@@]12CO[C@@H]1C[C@H](O)[C@@]1(C)C(=O)[C@H](O)C3=C(C)[C@@H](OC(=O)[C@H](O)[C@@H](NC(=O)OC(C)(C)C)c4ccccc4)C[C@@](O)([C@@H](OC(=O)c4ccccc4)[C@H]21)C3(C)C [DOCETAXEL ANHYDROUS]
target.of.assay: HeLa
number: -0.52
--
compound: C[C@@H]1C[C@@H](O)[C@]2(O)O[C@@H]3C[C@@]4(C=O)[C@@H](CC[C@@H]5[C@@H]4C[C@@H](O)[C@]4(C)[C@@H](C6=CC(=O)OC6)CC[C@]54O)C[C@H]3O[C@@H]2O1
target.of.assay: HeLa
number: 3.40
--
compound: C[C@@H]1C[C@H](O)[C@]2(O)O[C@@H]3C[C@@]4(C=O)[C@@H](CC[C@@H]5[C@@H]4C[C@@H](O)[C@]4(C)[C@@H](C6=CC(=O)OC6)CC[C@]54O)C[C@H]3O[C@@H]2O1
target.of.assay: HeLa
number: 2.78
--
compound: C[C@@H]1C[C@@H](O)[C@]2(O)O[C@@H]3C[C@@]4(CO)[C@@H](CC[C@@H]5[C@@H]4C[C@@H](O)[C@]4(C)[C@@H](C6=CC(=O)OC6)CC[C@]54O)C[C@H]3O[C@@H]2O1
target.of.assay: HeLa
number: 3.85
--
compound: C[C@@H]1C[C@H](O)[C@]2(O)O[C@@H]3C[C@@]4(C=O)[C@@H](CC[C@@H]5[C@@H]4C[C@@H](O)[C@]4(C)[C@@H](C6=CC(=O)OC6)[C@H](O)C[C@]54O)C[C@H]3O[C@@H]2O1
target.of.assay: HeLa
number: 3.36
